# MEASURED TARGET: recombinant human Flag-tagged PARP7 (amino acids 456-657) (Homo sapiens, UniProt Q7Z3E1)
# Construct: recombinant human Flag-tagged PARP7 (amino acids 456-657)
# Sequence (Q7Z3E1 456-657): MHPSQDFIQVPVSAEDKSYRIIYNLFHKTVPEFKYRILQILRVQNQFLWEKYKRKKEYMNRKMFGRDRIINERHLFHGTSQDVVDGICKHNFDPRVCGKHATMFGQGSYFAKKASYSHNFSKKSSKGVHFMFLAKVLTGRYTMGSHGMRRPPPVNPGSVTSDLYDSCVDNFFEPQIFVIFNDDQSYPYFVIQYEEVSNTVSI
# ASSAY NAME: PARP7 biochemical DELFIA assay (auto-MARylation)
# MEASUREMENT CONTEXT: DELFIA readout, IC50 class
pIC50: −log10 of the molar value.
OBSERVABLE: pIC50

Examples from the recorded data:
- CC(OCCCC(=O)N1CCN(c2ncc(C(F)(F)F)cn2)CC1)c1cccc2c(=O)[nH]ncc12 (single isomer, unassigned) [Compound 122]: ≥ 7.00
- CC(COCCC(=O)N1CCN(c2ncc(Cl)cn2)CC1)n1cc(C(F)F)c2c(=O)[nH]ncc21 (stereo not shown) [Compound 451]: ≥ 7.00
- N#Cc1ccc(N2CCN(C(=O)CCOCCN3CCCc4c3cn[nH]c4=O)CC2)nc1: ≥ 7.00
- O=C1NCCc2c1ccn2CCOCCC(=O)N1CCN(c2ncc(C(F)(F)F)cn2)CC1: 5.00 to 6.00
- N#Cc1ccc(N2CCN(C(=O)CCOCCn3c(C(F)(F)F)cc4c(=O)[nH]ncc43)CC2)nc1: 6.00 to 7.00

In: Data request, read-out pIC50, for CC1CN(C(=O)CCOCCn2cc(C(F)(F)F)c3c(=O)[nH]ncc32)CCN1c1ncc(C(F)(F)F)cn1 (stereo not shown) [Compound 372]
Out: ≥ 7.00

In: Data request, read-out pIC50, for CC(COCCC(=O)N1CCN(c2ncccc2C(F)(F)F)CC1)n1nc(C(F)(F)F)c2c(=O)[nH]ncc21 (stereo not shown) [Compound 354]
Out: 6.00 to 7.00

In: Data request, read-out pIC50, for O=C(CCOCC(c1cccc2c(=O)[nH]ncc12)C(F)(F)F)N1CCN(c2ncc(C(F)(F)F)cn2)CC1 (single isomer, unassigned) [Compound 427]
Out: 6.00 to 7.00

In: Data request, read-out pIC50, for CC(COCCC(=O)N1CCN(c2ccc(C3COC3)cn2)CC1)n1nc(C(F)(F)F)c2c(=O)[nH]ncc21 (single isomer, unassigned) [Compound 311]
Out: 6.00 to 7.00

In: Data request, read-out pIC50, for CC(COCCC(=O)N1CCN(c2ncc(F)cn2)CC1)n1cc(C(F)(F)F)c2c(=O)[nH]ncc21 (single isomer, unassigned) [Compound 468]
Out: ≥ 7.00

In: Data request, read-out pIC50, for CC(COCCC(=O)N1CCN(c2cc(C(F)(F)F)on2)CC1)n1nc(C(F)(F)F)c2c(=O)[nH]ncc21 (single isomer, unassigned) [Compound 430]
Out: 6.00 to 7.00

In: Data request, read-out pIC50, for CC(COCCC(=O)N1CCN(c2ncc(C(C)(C)C)cn2)CC1)n1cc(C(F)(F)F)c2c(=O)[nH]ncc21 (single isomer, unassigned) [Compound 499]
Out: ≥ 7.00

In: Data request, read-out pIC50, for O=C(CCOCCc1cccc2c(=O)[nH]ncc12)N1CCC(c2nc3ccccc3s2)CC1
Out: ≥ 7.00
